- EXPERIMENTAL_TARGET: Tyrosyl-DNA phosphodiesterase 1 (Homo sapiens, UniProt Q9NUW8)
- Sequence (Q9NUW8 whole entry): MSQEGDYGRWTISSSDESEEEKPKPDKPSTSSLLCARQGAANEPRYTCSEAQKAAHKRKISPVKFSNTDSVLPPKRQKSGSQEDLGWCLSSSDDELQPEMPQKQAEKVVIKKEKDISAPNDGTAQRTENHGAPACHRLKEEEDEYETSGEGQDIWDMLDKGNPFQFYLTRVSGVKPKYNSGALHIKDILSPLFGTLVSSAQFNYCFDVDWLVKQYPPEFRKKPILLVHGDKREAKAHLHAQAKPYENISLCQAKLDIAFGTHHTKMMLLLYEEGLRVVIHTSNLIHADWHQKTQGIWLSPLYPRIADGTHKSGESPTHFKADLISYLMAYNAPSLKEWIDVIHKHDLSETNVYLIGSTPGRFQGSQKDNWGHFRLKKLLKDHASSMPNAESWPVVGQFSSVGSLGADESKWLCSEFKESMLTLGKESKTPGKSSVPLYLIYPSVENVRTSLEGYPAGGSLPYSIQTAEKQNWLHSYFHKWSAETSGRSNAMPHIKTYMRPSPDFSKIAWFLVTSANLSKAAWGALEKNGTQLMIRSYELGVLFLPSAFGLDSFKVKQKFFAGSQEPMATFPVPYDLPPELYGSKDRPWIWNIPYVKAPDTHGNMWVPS
- TEST_DETAILS: Inhibition of human recombinant Tdp1 assessed as conversion of 14-mer 5'-32P-labeled 3'-phosphotyrosyl DNA substrate N14Y to 14-mer 5'-32P-labeled 3'-phosphate DNA product N14P after 15 mins by PAGE analysis in presence of bovine serum albumin
MEASURED_METRIC: pIC50
Reminder that pIC50 is minus the log10 of a molar concentration.

QUERY: Provide pIC50, system Tyrosyl-DNA phosphodiesterase 1 (Homo sapiens, UniProt Q9NUW8), entry O=C1NC(=S)/C(=C/c2ccc(O)c(O)c2O)S1
RESULT: 5.55

---

- EXPERIMENTAL_TARGET: Tyrosyl-DNA phosphodiesterase 2 (Homo sapiens, UniProt O95551)
- Sequence (O95551 whole entry): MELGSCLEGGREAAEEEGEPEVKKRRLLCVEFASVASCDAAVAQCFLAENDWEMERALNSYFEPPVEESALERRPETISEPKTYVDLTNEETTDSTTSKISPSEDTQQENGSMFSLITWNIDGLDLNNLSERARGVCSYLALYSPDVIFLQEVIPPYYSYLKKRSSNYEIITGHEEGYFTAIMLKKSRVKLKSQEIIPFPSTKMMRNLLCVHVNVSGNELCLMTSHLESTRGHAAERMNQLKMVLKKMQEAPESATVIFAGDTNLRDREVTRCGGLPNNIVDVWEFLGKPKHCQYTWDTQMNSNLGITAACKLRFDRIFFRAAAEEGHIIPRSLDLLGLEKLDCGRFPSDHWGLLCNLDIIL
- TEST_DETAILS: Inhibition of recombinant Tdp2
MEASURED_METRIC: IC50 (µM)
# value in µM; strip the unit string

QUERY: Indicate the recorded IC50 value for this molecule: O=C1NC(=S)/C(=C/c2ccc(O)c(O)c2O)S1
RESULT: 17

---

- EXPERIMENTAL_TARGET: Tyrosyl-DNA phosphodiesterase 1 (Homo sapiens, UniProt Q9NUW8)
- TEST_DETAILS: Inhibition of human recombinant Tdp1 assessed as conversion of 14-mer 5'-32P-labeled 3'-phosphotyrosyl DNA substrate N14Y to 14-mer 5'-32P-labeled 3'-phosphate DNA product N14P after 15 mins by PAGE analysis
pIC50 listing for selected molecules.
Kindly note that pIC50 refers to -log10 of the concentration in mol/L and answer with the value alone.

QUERY: In one line, give reported pIC50 of the entry COC(=O)c1cccc(/C=C2\SC(=O)NC2=S)c1 .
RESULT: 4.29

QUERY: Annotate the molecule O=C1NC(=S)N(Cc2ccccc2)/C1=C\c1ccc(O)c(O)c1 with its measured pIC50.
RESULT: 4.89

QUERY: Supply measured pIC50 of O=C1NC(=S)/C(=C/c2ccc(P(=O)(O)O)cc2)S1 in your reply.
RESULT: 5.66

QUERY: Give me measured pIC50, please, for this molecule: O=C1NC(=S)/C(=C/c2cc(O)ccc2O)S1
RESULT: 5.15

QUERY: Could you please provide reported pIC50 for O=C1NC(=S)/C(=C/c2ccc3[nH]ccc3c2)S1 ? Thanks!
RESULT: 4.92

QUERY: Give recorded pIC50. O=C1NC(=S)/C(=C/c2ccccc2-c2nnn[nH]2)S1
RESULT: 3.95

QUERY: Provide pIC50 value for the following molecule: O=C1NC(=S)/C(=C/c2ccccc2O)S1
RESULT: 4.47

QUERY: Return the recorded pIC50 value; entry: O=C1NC(=S)/C(=C/c2ccc(F)cc2)S1
RESULT: 4.57

QUERY: Answer with the recorded pIC50 for the molecule listed here: O=C1NC(=S)/C(=C/c2cccc(O)c2O)S1
RESULT: 5.24

QUERY: Tell me pIC50 reported for COc1cc(/C=C2\SC(=O)NC2=S)cc(OC)c1O
RESULT: 4.32

QUERY: Specify measured pIC50 for O=C1NC(=S)/C(=C/c2ccc(O)c(O)c2O)S1 .
RESULT: 6.06

QUERY: Entry O=C1NC(=S)/C(=C/c2ccc(-c3ccccc3)s2)S1 needs its pIC50 filled in; supply it.
RESULT: 4.34

Origin of values: ChEMBL document CHEMBL2169786
